- Tested on: CDK4
- CONDITION_PARAMETERS: concentration: 1 μM, replicates: in singlicate; n = 1;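 further: KINOMEscan kinase panel screen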
ENDPOINT_LABEL: %Inh (%)
Report the figure in % without appending any unit label.

The examples below pair each entry with its known result.
> print(dat)
                                   molecule  test.value
1  Cc1nnc(-c2ccc3occ(-c4ccc(C(C)O)cc4)c3c2)o1 (stereo not shown)           0
2  Cn1cc(-c2ccc3c(c2)CCN3C(=O)Cc2ccccc2Cl)c2c(N)ncnc21 [GSK2608885]          22
3  O=C(Nc1n[nH]c2cc(-c3cccc(F)c3)ccc12)C1CC1 [SB-735464]          44
4  Cc1ccc(C(=O)NCC(N)=O)cc1-n1c(C)cc(OCc2ccc(F)cc2F)c(Br)c1=O           0

Recorded result, NCC(NC(=O)c1cc(-c2cn[nH]c2)c(-c2ccnc3[nH]ccc23)s1)c1ccccc1.O=C(O)C(F)(F)F.O=C(O)C(F)(F)F (stereo not shown) [GSK1325775] , %Inh: 0

Recorded result, [2H]C([2H])(c1cccc(C(F)(F)F)c1C)n1ccn2c(=O)nc(N3CCOCC3)cc12 [GSK2336394] , %Inh: 14

Recorded result, CN(C1=C(c2ccccc2)C(=O)NC1=O)c1ccccc1 [SB-334860] , %Inh: 5

* * *

Measured %Inh, listed per entry for reference.
- Test system: PAK3
- CONDITION_PARAMETERS: concentration: 1 μM, replicates: in singlicate; n = 1
Report the figure in % without appending any unit label.

> print(dat)
                                   compound  test.value
1  CN(C1=C(c2ccccc2)C(=O)NC1=O)c1ccccc1 [SB-334860]           0
2  O=c1cc(N2CCOCC2)nc2n(Cc3cccc4ccccc34)ccn12 [GSK2333389]          10
3  CCc1nc(-c2cccc(C)c2)c(-c2ccnc(NCc3ccccc3)c2)s1          22

Recorded result, COc1ccc(Nc2nccc(N3CCC(NC(=O)Nc4cc(C)ccc4C)C3)n2)cc1 (stereo not shown) [GSK1379741] , %Inh: 0

Recorded result, O=C(NCCNc1ccnc(Nc2ccc(F)cc2)n1)c1cc2ccccc2s1 [GSK1379874] , %Inh: 0

Recorded result, COc1ccc(Nc2ncc(C#N)c(Nc3ccccc3C(N)=O)n2)cc1N1CCN(C)CC1.Cl [GSK1558669] , %Inh: 100

Recorded result, "Cn1ccc2ncnc(Oc3ccc(NC(=O)Nc4ccncc4)c(Cl)c3)c21" , %Inh: 0

Recorded result, "CCc1ccnc(/C=C/c2n[nH]c3cc(Sc4ccccc4C(=O)NC)ccc23)c1" , %Inh: 0

Recorded result, Cn1cc(-c2ccc3c(c2)CCN3C(=O)Cc2ccccc2Cl)c2c(N)ncnc21 [GSK2608885] , %Inh: 28

Recorded result, NS(=O)(=O)c1cccc(-c2ccc3nccc(-c4cccc(S(N)(=O)=O)c4)c3c2)c1 [GW867253] , %Inh: 0

Recorded result, Fc1ccc(-c2nn3c(OCC(F)(F)F)cccc3c2-c2ccncc2)cc1 [GW514784] , %Inh: 0

Recorded result, CC(=O)Nc1ccc(COc2ccc(Nc3ccnc4cc(-c5ccccn5)ccc34)cc2)cc1.Cl [GW440148] , %Inh: 22

Recorded result, Cc1ccc(NC(=O)c2ccnc(N3CCN(C)CC3)c2)cc1-c1ccc(C(=O)NCC2CC2)cc1 [GW775604] , %Inh: 0

Recorded result, O=C(NCCCN1CCOCC1)c1cccc(Nc2nccc(Nc3ccc(Oc4ccccc4)cc3)n2)c1 [GW663929] , %Inh: 0

Recorded result, "COc1cc2c(cc1OCCN1CCN(C)CC1)ncc1c3ccc(C#N)cc3[nH]c21" , %Inh: 0

Recorded result, [2H]C([2H])(c1cccc(C(F)(F)F)c1C)n1ccn2c(=O)nc(N3CCOCC3)cc12 [GSK2336394] , %Inh: 13

Recorded result, COc1ccc(Nc2nccc(N3CCC(NC(=O)Nc4cccc(C(C)=O)c4)C3)n2)cc1 (stereo not shown) [GSK1379731] , %Inh: 0

Recorded result, Cc1cccc(-c2nc(Nc3ccc4ncsc4c3)c3ccccc3n2)n1 [GW867588] , %Inh: 19

Recorded result, COc1ccc(CNC(=O)NC2CCN(c3ccnc(Nc4ccc(OC)cc4)n3)C2)cc1 (stereo not shown) [GSK1379727] , %Inh: 0

Recorded result, O=c1cc(N2CCOCC2)nc2n(Cc3cccc(F)c3)ccn12 [GSK2297430] , %Inh: 79

Recorded result, "N#Cc1c(N2CCOCC2)sc(-c2ccn[nH]2)c1-c1ccc(Cl)cc1" , %Inh: 27

Recorded result, COc1cc(Nc2nccc(N3CCC(NC(=O)c4cccc(NC(C)=O)c4)C3)n2)cc(OC)c1OC (stereo not shown) [GSK1379754] , %Inh: 26

Recorded result, "Cc1ccc(C(=O)NCC(N)=O)cc1-n1c(C)cc(OCc2ccc(F)cc2F)c(Br)c1=O" , %Inh: 37

Recorded result, "CN1c2ccc(CNc3ccc(F)cc3)cc2-c2c(cnn2C)S1(=O)=O" , %Inh: 0

Recorded result, COc1cc2ncn(-c3cc(OCc4sccc4Cl)c(C(N)=O)s3)c2cc1OC [GSK448459] , %Inh: 20

Recorded result, COc1ccc(COc2cc(-n3cnc4ccccc43)sc2C(N)=O)cc1 [GSK1024304] , %Inh: 1

Recorded result, COCCNC(=O)c1ccc(-c2cc(C(=O)NC3CC3)cc(F)c2C)cc1 [GW868318] , %Inh: 27

Recorded result, "COc1cc2c(cc1OC[C@@H](O)CO)ncc1c3ccc(C#N)cc3[nH]c21" , %Inh: 0
